Hey, just so you know, these numbers are from patent US5001255A.

Overview of reported ED50 across a group of molecules:
- Test system: 3β-hydroxysterol synthesis
- TEST METHOD NOTES: Test B. In Vivo Cholesterol Biosynthesis Inhibition Test
- Design: species or system rat (male Wistar Royal Hart)
- ASSAY CONDITIONS: Rattus norvegicus; rats, oral, 0.5% carboxymethylcellulose; i.p. sodium [1-14C]acetate one hour later; serum two hours after mid-dark; read-out: ED50 (dose producing a 50% inhibition of 3β-hydroxysterol synthesis)
Record the value in mg/kg, omitting the unit from your answer.

Examples with their reported ED50 follow.
- MOLECULE: "O=C(O)C[C@H](O)C[C@H](O)/C=C/C1=C(c2ccc(F)cc2)c2ccccc2C12CCCC2 (relative stereo)"
  MEASURE UNIT: "mg/kg"
  ED50: 0.07
- MOLECULE: "CC[C@H](C)C(=O)O[C@H]1CCC=C2C=C[C@H](C)[C@H](CC[C@@H]3C[C@@H](O)CC(=O)O3)[C@H]21 [Compactin, reference compound]"
  MEASURE UNIT: "mg/kg"
  ED50: 3.5
- MOLECULE: "CCOC(=O)CC(O)CC(O)/C=C/C1=C(c2ccc(F)cc2)c2ccccc2C12CC2 (stereo not shown)"
  MEASURE UNIT: "mg/kg"
  ED50: 0.71

Look up ED50: Cc1cc(C)cc(C2=C(/C=C/[C@@H](O)C[C@@H](O)CC(=O)O)C3(CCCC3)c3ccccc32)c1 (relative stereo) 0.31
